TESTED TARGET: T1, control peptide A2E-23/HLA-A*02:01 complex on T2 cells (member of the P19 mixture) (human)
T1 construct: Loaded on T2 cells as part of the mixture of 19 control peptides
PROTOCOL DETAILS: flow cytometry, phage on T2 cells
OUTCOME MEASURE: binding result

BINDER	OUTCOME MEASURE	MEASURED VALUE
PSA146/HLA-A*02:01-specific scFv phage clone #9 (scFv, V domains shown) VH: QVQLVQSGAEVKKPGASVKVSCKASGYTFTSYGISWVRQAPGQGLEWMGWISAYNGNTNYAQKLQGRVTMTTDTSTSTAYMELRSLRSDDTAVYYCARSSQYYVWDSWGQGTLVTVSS VL: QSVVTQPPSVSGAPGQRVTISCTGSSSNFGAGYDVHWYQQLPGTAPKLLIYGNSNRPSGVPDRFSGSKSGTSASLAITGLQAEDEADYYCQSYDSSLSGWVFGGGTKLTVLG	binding result	no binding
PSA146/HLA-A*02:01-specific scFv phage clone #17 (scFv, V domains shown) VH: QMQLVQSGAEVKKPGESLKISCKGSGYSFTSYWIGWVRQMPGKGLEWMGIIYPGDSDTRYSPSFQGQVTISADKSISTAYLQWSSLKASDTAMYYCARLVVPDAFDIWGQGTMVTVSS VL: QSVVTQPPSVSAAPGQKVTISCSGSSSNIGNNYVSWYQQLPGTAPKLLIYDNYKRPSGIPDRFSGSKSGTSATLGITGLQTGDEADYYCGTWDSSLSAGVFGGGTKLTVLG	binding result	no binding
